All figures here come from patent US9682966B2.

Field: pIC50. Provide a value for each of the compounds that follow.
molecular target: kappa opioid receptor (OPRK1) (Homo sapiens (Human), UniProt P41145); experiment: OPRK1 antagonist assay (b-arrestin-2-TEV / b-lactamase reporter, EC80 U-50488 challenge); conditions: OPRK1 antagonist assay vs EC80 U-50488
Sequence (P41145 whole entry): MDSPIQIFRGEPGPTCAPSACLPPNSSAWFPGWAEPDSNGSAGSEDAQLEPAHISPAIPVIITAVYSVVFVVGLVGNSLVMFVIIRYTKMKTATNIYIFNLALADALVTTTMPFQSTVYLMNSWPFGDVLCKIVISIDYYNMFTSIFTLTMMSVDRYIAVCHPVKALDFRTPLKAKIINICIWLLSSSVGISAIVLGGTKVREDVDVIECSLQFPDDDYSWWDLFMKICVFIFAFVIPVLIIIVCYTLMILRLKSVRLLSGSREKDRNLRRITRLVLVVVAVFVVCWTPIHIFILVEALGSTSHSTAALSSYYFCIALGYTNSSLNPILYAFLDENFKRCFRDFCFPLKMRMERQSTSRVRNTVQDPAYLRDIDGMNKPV
Answers are plain numbers, as −log10 of the molar value.

>>> observed("Cc1ccc2nc(N3CCC(NC4CCCCC4)C(CO)C3)c(-c3noc(C)n3)cc2c1 (stereo not drawn)")
9.14
>>> observed("CO[C@@H]1CN(c2nc3ccc(C)cc3cc2-c2nc(C3CC3)no2)CC[C@@H]1NC1CCCC1")
8.22

Please fill in: pIC50 reported for COC(=O)c1cnc(N2CCC(NC3CCCCC3)C(CO)C2)c(Br)c1 (stereo not drawn) = 4.89
